# Test System: biotinylated His-Avi-TEAD (194-411) (UniProt P28347)
# Assay: SSM screen, enrichment after two rounds of sorting
Observed Property: enrichment score

[P] GSPDEYIERAKNCCKKGDIQCCLRYFEESGDPNVMLICLFCP (designed binder) [E10N variant of SEQ ID NO: 1]
[Q] GSPDEYIQRAKECCKKGDIQCCLRYFEESGDPNVMLICLFCP (designed binder) [E06Q variant of SEQ ID NO: 1]
[R] GSPDEYIERAKECCYKGDIQCCLRYFEESGDPNVMLICLFCP (designed binder) [K13Y variant of SEQ ID NO: 1]
[S] GSPDEYIERAKECCKGGDIQCCLRYFEESGDPNVMLICLFCP (designed binder) [K14G variant of SEQ ID NO: 1]
Reorder the items by enrichment score, least to greatest. Provide the labels, sequenced as the question asks. Q, R, P, S
(Q: -2.41, R: -1.29, P: -0.45, S: 1.11)

[P] GSPSEYIERAKECCKKGDIQCCLRYFEESGDPNVMLICLFCP (designed binder) [D02S variant of SEQ ID NO: 1]
[Q] GSPDEYIERAKECCKFGDIQCCLRYFEESGDPNVMLICLFCP (designed binder) [K14F variant of SEQ ID NO: 1]
Which shows the larger enrichment score value: P or Q ? Give the label of your selection. Q
